Listed here are binders together with their documented hGLP-1R EC50 (pM).
- Target Under Test: human GLP-1 receptor (human, UniProt P43220)
- Measurement Description: cell-based or functional assay
Starred links: 1 amine or outer side, 2 acyl side, 3 side chain; linkers in the order of their positions; H or OH if unused. Non-standard residues stand in square brackets, D forms with d. Groups on a side chain read outwards from the residue. No end group written: not given here. *: point of attachment. C20 diacid = O=C(O)CCCCCCCCCCCCCCCCCCC(=O)*; γGlu = O=C(O)[C@H](CCC(=O)[*:2])N[*:1]; αMeF = C[C@](N)(Cc1ccccc1)C(=O)O; AEEA = NCCOCCOCC(=O)O; Aib = CC(C)(N)C(=O)O

Binder	hGLP-1R EC50 (pM)
H[Aib]HGS[αMeF]TSDVSKYLDSRAAKDFVQWIANT-NH2 (not fully specified (residue 20)) [Peptide 292]	28.7
H[Aib]HGS[αMeF]TSDVSK[αMeF]LDSRAAK([γGlu-C20 diacid])D[αMeF]VQ[Aib]IANT-NH2 [Peptide 276]	143
H[Aib]HGS[αMeF]TSDVSK[αMeF]LDSRAAK([AEEA-AEEA-γGlu-γGlu-C20 diacid])D[αMeF]IA[Aib]IAET-NH2 [Peptide 302]	151

Where do the numbers come from? From patent US12630600B2.
